Kindly state %Inh for each of the entries shown.
- Tested on: MST1R;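 note: KINOMEscan kinase panel screen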
- recorded-conditions: concentration: 1 μM, replicates: in singlicate; n = 1
Report as a plain number; the unit % is understood.

Problem: Returns the measured %Inh for the input compound. Input: Cc1ccc(NC(=O)Nc2ccc(Cl)c(C(F)(F)F)c2)cc1-c1ccc(C(=O)Nc2ccncc2)cc1 [GSK1398470]
Solution: 38

Problem: What %Inh value was documented for this compound, Cc1nccc(-c2c(-c3ccc(F)cc3)ncn2CCCN2CCOCC2)n1.Cl [SB-282975] ?
Solution: 0

Problem: Reported %Inh, compound Fc1ccc(-c2nn3cccc(F)c3c2-c2ccncc2)cc1 [GW475620] : ____
Solution: 18

Problem: Looking for the measured %Inh of Cc1c(Cn2c(C)c(C)n3c(=O)cc(N4CCOCC4)nc23)cccc1C(F)(F)F [GSK2328680] , can you help?
Solution: 12

Problem: Which measured %Inh value corresponds to COc1ccc(Nc2nccc(NCCNC(=O)Nc3cc(C)ccc3C)n2)cc1 [GSK1379899] ?
Solution: 15

Problem: For COC(=O)C(Cc1ccccc1)NC(=O)NC1CCN(c2ccnc(Nc3ccc(F)cc3)n2)C1 (stereo not drawn) [GSK1379714] , what is its reported %Inh?
Solution: 39

Problem: Would you mind telling me what %Inh value was observed for Fc1ccc(-c2nc3n(c2-c2ccncc2)CCS3)cc1 [GI98581] ?
Solution: 39

Problem: Could you tell me which %Inh is on file for CC(C)c1cc(-c2ccc3c(N)n[nH]c3c2)nc(N)n1 [GSK2250882] ?
Solution: 3

Problem: Entry under review: O=C(Nc1n[nH]c2nc(-c3cccs3)c(Br)cc12)C1CCCC1 [SB-743341] . Reported %Inh?
Solution: 17
